inhibition values, listed per item
target: 6-phosphogluconate dehydrogenase, decarboxylating (Homo sapiens); test: 6PGD enzyme inhibitors, primary screen, biochemical, human, recombinant enzyme, NADPH absorbance (AID 1159550); settings: recombinant 6PGD, NADPH absorbance 341 nm; at 10 µM; stronger effect = higher value
Peptide text beside a SMILES is read from it. * marks the point of attachment. For = O=C*
test_readout: inhibition (%)

compound: CC1(C)C(=O)CC[C@@]2(C)C1C[C@@H](O)[C@@]1(C)C3=CC(=O)O[C@@H](c4ccoc4)[C@]3(C)CCC21 (some centres undefined)
assay_target: 6-phosphogluconate dehydrogenase, decarboxylating (Homo sapiens)
observed_value: -10.8
--
compound: COc1ccc(-c2coc3cc(OC)cc(OC)c3c2=O)cc1
assay_target: 6-phosphogluconate dehydrogenase, decarboxylating (Homo sapiens)
observed_value: 4.5
--
compound: NCCCCN=C(N)N
assay_target: 6-phosphogluconate dehydrogenase, decarboxylating (Homo sapiens)
observed_value: -2.27
--
compound: CC(C)C[C@@H]1NC(=O)[C@H](CCCN)NC(=O)[C@H](C(C)C)NC(=O)[C@H](Cc2ccc(O)cc2)N[C@@H](CCC(=O)O)C(=O)N[C@@H](CC(N)=O)C(=O)[C@@H](Cc2ccccc2)NC(=O)[C@H](Cc2ccccc2)NC(=O)[C@@H]2CCCN2C(=O)[C@@H](Cc2ccccc2)NC1=O
assay_target: 6-phosphogluconate dehydrogenase, decarboxylating (Homo sapiens)
observed_value: 2.66
--
compound: COc1ccc(C2COc3cc(O)ccc3C2)c(OC)c1O (centres undefined)
assay_target: 6-phosphogluconate dehydrogenase, decarboxylating (Homo sapiens)
observed_value: 1.81
--
compound: CC[C@H]1OC(=O)[C@H](C)[C@@H](O[C@H]2C[C@@](C)(OC)[C@@H](O)[C@H](C)O2)[C@H](C)[C@@H](O[C@@H]2O[C@H](C)C[C@H](N(C)C)[C@H]2O)[C@](C)(O)C[C@@H](C)[C@@H]2NC(COCCOC)O[C@H]([C@H]2C)[C@]1(C)O (some centres undefined)
assay_target: 6-phosphogluconate dehydrogenase, decarboxylating (Homo sapiens)
observed_value: 5.47
--
compound: CO[C@H]1/C=C/O[C@@]2(C)Oc3c(C)c(O)c4c(O)c(c(/C=N/N5CCN(C)CC5)c(O)c4c3C2=O)NC(=O)/C(C)=C/C=C/[C@H](C)[C@H](O)[C@@H](C)[C@@H](O)[C@@H](C)[C@H](OC(C)=O)[C@@H]1C
assay_target: 6-phosphogluconate dehydrogenase, decarboxylating (Homo sapiens)
observed_value: 18.2
--
compound: COc1ccc([C@H]2Oc3cc(OC)cc(OC)c3C[C@H]2O)cc1
assay_target: 6-phosphogluconate dehydrogenase, decarboxylating (Homo sapiens)
observed_value: -0.838
--
compound: CC1(C)C=CC(=O)[C@]2(C)[C@H]3CC[C@@]4(C)[C@H](c5ccoc5)OC(=O)[C@H]5O[C@]54[C@]3(C)C(=O)C[C@@H]12
assay_target: 6-phosphogluconate dehydrogenase, decarboxylating (Homo sapiens)
observed_value: -8.35
--
compound: CCCCC(=O)N(Cc1ccc(-c2ccccc2-c2nn[nH]n2)cc1)[C@H](C(=O)O)C(C)C
assay_target: 6-phosphogluconate dehydrogenase, decarboxylating (Homo sapiens)
observed_value: -2.51
--
compound: COc1ccc2cc([C@H](C)CO)ccc2c1
assay_target: 6-phosphogluconate dehydrogenase, decarboxylating (Homo sapiens)
observed_value: 2.43
--
compound: CCCCOc1cc(CC2CNC(=O)N2)ccc1OC (centres undefined)
assay_target: 6-phosphogluconate dehydrogenase, decarboxylating (Homo sapiens)
observed_value: 1.84
--
compound: CSCCC(NC=O)C(=O)NC(Cc1ccccc1)C(=O)O (stereo not drawn) (For-Met-Phe-OH; configuration not given here)
assay_target: 6-phosphogluconate dehydrogenase, decarboxylating (Homo sapiens)
observed_value: 6.92
--
compound: CC(C)CC(NC(=O)C1CCCN1C(=O)C(N)C(C)C)C(=O)O (centres undefined)
assay_target: 6-phosphogluconate dehydrogenase, decarboxylating (Homo sapiens)
observed_value: 14
--
compound: COc1ccc(CCC(=O)c2c(O)cc(O[C@@H]3O[C@H](CO)[C@@H](O)[C@H](O)[C@H]3O[C@@H]3O[C@@H](C)[C@H](O)[C@@H](O)[C@H]3O)cc2O)cc1O
assay_target: 6-phosphogluconate dehydrogenase, decarboxylating (Homo sapiens)
observed_value: -14.9
--
compound: Cc1ccc(/C(=C\CN2CCCC2)c2ccccn2)cc1
assay_target: 6-phosphogluconate dehydrogenase, decarboxylating (Homo sapiens)
observed_value: 2.89
--
compound: C=CC(C)(CCC1C(=C)CC(OC(C)=O)C2C(C)(C)CCCC12C)OC(C)=O (centres undefined)
assay_target: 6-phosphogluconate dehydrogenase, decarboxylating (Homo sapiens)
observed_value: 11.4
--
compound: Cc1[nH]ccc2c1[nH]c1cc(=O)ccc12
assay_target: 6-phosphogluconate dehydrogenase, decarboxylating (Homo sapiens)
observed_value: 8.86
--
compound: C[C@@H]1[C@H](O)[C@@H](C)/C=C/C=C/C=C/C=C/C=C/C=C/C=C/[C@H](O[C@@H]2O[C@H](C)[C@@H](O)[C@H](N)[C@@H]2O)C[C@@H]2O[C@](O)(C[C@@H](O)C[C@@H](O)[C@H](O)CC[C@@H](O)C[C@@H](O)CC(=O)O[C@H]1C)C[C@H](O)[C@H]2C(=O)O
assay_target: 6-phosphogluconate dehydrogenase, decarboxylating (Homo sapiens)
observed_value: -10.9
--
compound: C=CC(C1=CC(=O)C(OC)=CC1=O)c1ccccc1 (centres undefined)
assay_target: 6-phosphogluconate dehydrogenase, decarboxylating (Homo sapiens)
observed_value: -2.35
--
compound: CN(C)c1nc(N)c(C(=O)N=C(N)N)nc1Cl
assay_target: 6-phosphogluconate dehydrogenase, decarboxylating (Homo sapiens)
observed_value: 11.7
--
compound: CN[C@H]1[C@@H](O[C@@H]2[C@@H](O[C@H]3[C@H](O)[C@@H](O)[C@H](N=C(N)N)[C@@H](O)[C@@H]3N=C(N)N)O[C@H](C)[C@@]2(O)C=O)O[C@H](CO)[C@@H](O)[C@@H]1O
assay_target: 6-phosphogluconate dehydrogenase, decarboxylating (Homo sapiens)
observed_value: 6.7
--
compound: COc1ccc2c(=O)c(CC(=O)O)coc2c1
assay_target: 6-phosphogluconate dehydrogenase, decarboxylating (Homo sapiens)
observed_value: -1.05
--
compound: CC(=O)O[C@@H]1CC[C@@]2(C)C(C[C@@H](OC(C)=O)[C@@]3(C)C4=CC(=O)O[C@@H](c5ccoc5)[C@]4(C)CCC23)C1(C)C (some centres undefined)
assay_target: 6-phosphogluconate dehydrogenase, decarboxylating (Homo sapiens)
observed_value: -14.7
--
compound: COc1ccc2c(=O)ccoc2c1
assay_target: 6-phosphogluconate dehydrogenase, decarboxylating (Homo sapiens)
observed_value: -1.53
--
compound: CC(=O)O[C@H]1C[C@@H](OC(C)=O)C(C)(C)[C@@H]2C[C@@H](OC(C)=O)[C@]3(C)[C@H](CC[C@@]4(C)[C@H](c5ccoc5)OC(=O)[C@H]5O[C@@]534)[C@@]12C
assay_target: 6-phosphogluconate dehydrogenase, decarboxylating (Homo sapiens)
observed_value: -4.75
--
compound: CCOc1cccc(C(=O)c2ccc(O)c(O)c2O)c1
assay_target: 6-phosphogluconate dehydrogenase, decarboxylating (Homo sapiens)
observed_value: 11.3
--
compound: COc1ccc(-c2c(OC)c3c(OC)c4c(cc3oc2=O)OC(C)(C)C=C4)cc1
assay_target: 6-phosphogluconate dehydrogenase, decarboxylating (Homo sapiens)
observed_value: 5.26
--
compound: O=c1ccc2ccc(O)c(O)c2o1
assay_target: 6-phosphogluconate dehydrogenase, decarboxylating (Homo sapiens)
observed_value: 2.02
--
compound: O=C(O)c1c2ccccc2cc2ccccc12
assay_target: 6-phosphogluconate dehydrogenase, decarboxylating (Homo sapiens)
observed_value: -1.37
--
compound: CC(C)CCCCCOC(=O)COc1ccc(Cl)cc1Cl
assay_target: 6-phosphogluconate dehydrogenase, decarboxylating (Homo sapiens)
observed_value: -8.81
--
compound: COC(=O)c1c(C)c2c(c(C)c1O)OC(=O)c1c(C)c(Cl)c(O)c(Cl)c1O2
assay_target: 6-phosphogluconate dehydrogenase, decarboxylating (Homo sapiens)
observed_value: 11.2
--
compound: S=c1[nH]c2ccccc2s1
assay_target: 6-phosphogluconate dehydrogenase, decarboxylating (Homo sapiens)
observed_value: -1.67
--
compound: C1CCc2nnnn2CC1
assay_target: 6-phosphogluconate dehydrogenase, decarboxylating (Homo sapiens)
observed_value: 10.8

###

inhibition values, listed per item
assay: HTB85 osteosarcoma cell growth inhibition, synergistic combos for chromothripsis tumors, BGB or cisplatin IC20 combos (AID 1671453); settings: HTB85 osteosarcoma cells, drug combinations, single agent, at 5 µM, stronger effect = higher value;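 further: cells exposed for 96 hours before readout; 0% = vehicle DMSO and 100% = high DMSO killing control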

compound: O=c1cc[nH]c(=O)[nH]1
measure_unit: %
inhibition: -19.7
--
compound: COC1C(OC(N)=O)C(O)C(Oc2ccc3c(O)c(NC(=O)c4ccc(O)c(CC=C(C)C)c4)c(=O)oc3c2C)OC1(C)C (configuration not stated)
measure_unit: %
inhibition: -19
--
compound: Nc1nc(Cl)nc2c1ncn2[C@@H]1O[C@H](CO)[C@@H](O)[C@@H]1F
measure_unit: %
inhibition: 96.4
--
compound: CN1C[C@@H]2C[C@H]1CN2c1cc2c(cc1F)c(=O)c(C(=O)O)cn2C1CC1
measure_unit: %
inhibition: -25
--
compound: O=c1c(O)c(-c2ccc(O)c(O)c2)oc2cc(O)ccc12
measure_unit: %
inhibition: 8.35
--
compound: CN1CCN(c2c(F)cc3c(=O)c(C(=O)O)cn4c3c2OCN4C)CC1
measure_unit: %
inhibition: -8.81
--
compound: CC1(C(=O)O)CCC2(C)CCC3(C)C(=CC(=O)C4C5(C)CCC(OC(=O)CCC(=O)O)C(C)(C)C5CCC43C)C2C1 (configuration not stated)
measure_unit: %
inhibition: -22.6
--
compound: COc1c2ccoc2cc2oc(=O)ccc12
measure_unit: %
inhibition: -6.82
--
compound: CCn1nc(C(=O)O)c(=O)c2cc3c(cc21)OCO3
measure_unit: %
inhibition: -6.73
--
compound: CN(N=O)C(=O)NC1C(O)OC(CO)C(O)C1O (configuration not stated)
measure_unit: %
inhibition: -23.4
--
compound: CCOC(=O)Nc1ccc(NCc2ccc(F)cc2)nc1N
measure_unit: %
inhibition: 1.76
--
compound: O=c1[nH]c(=O)n([C@H]2C[C@H](O)[C@@H](CO)O2)cc1Br
measure_unit: %
inhibition: 9.21
--
compound: O=c1[nH]c(=O)n([C@H]2C[C@H](O)[C@@H](CO)O2)cc1C(F)(F)F
measure_unit: %
inhibition: 7.02
--
compound: Nc1ncn([C@H]2C[C@H](O)[C@@H](CO)O2)c(=O)n1
measure_unit: %
inhibition: 40.2
--
compound: CN1CCN(c2c(F)cc3c(=O)c(C(=O)O)cn(CCF)c3c2F)CC1
measure_unit: %
inhibition: 7.25
--
compound: O=C(CCCCCCC(=O)Nc1ccccc1)NO
measure_unit: %
inhibition: 87.5
--
compound: Cc1ccc2nc(N)[nH]c(=O)c2c1Sc1ccncc1
measure_unit: %
inhibition: 0.242

All figures here come from PubChem BioAssay.
